experiment: Half life in Sprague-Dawley rat at 1 mg/kg, iv after 0.25 to 24 hrs; assay type: ADME, organism-based; conditions: in vivo
Reported endpoint: half-life (h)
Your answer should be a plain number; it is taken to be in h.

Provide only the value of recorded half-life for CN1CCN(CCCOc2ccc(N3C(=O)/C(=C/c4ccc(Oc5ccc(F)cc5)cc4)SC3=S)cc2)CC1
5.5

====

assay: Cmax in Sprague-Dawley rat at 1 mg/kg, iv after 0.25 to 24 hrs; type: ADME, organism-based; design: dose 1 mg/kg, route intravenous; settings: in vivo
Reported endpoint: Cmax (ng/mL)
Your answer should be a plain number; it is taken to be in ng/mL.

Provide only the value of recorded Cmax for CN1CCN(CCCOc2ccc(N3C(=O)/C(=C/c4ccc(Oc5ccc(F)cc5)cc4)SC3=S)cc2)CC1
94
